- Measurement setup: human gut metagenome, 24 h, 2 µM; also: call rule not given here
Where a SMILES comes first, the peptide text is derived from it. [ ]: non-standard residue; d: D form. pGlu = O=C1CC[C@@H](C(=O)O)N1; Thz = O=C(O)[C@@H]1CSCN1

Compound: O=C1CC[C@@H](C(=O)N2CSC[C@H]2C(=O)O)N1 [PIDOTIMOD] ([pGlu]-[Thz]-OH)
Bacterial Biotransformation: Compound NOT metabolized

Compound: C[C@@H]1CC[C@H]2[C@@H](C)C(=O)O[C@@H]3O[C@@]4(C)CC[C@@H]1[C@]32OO4
Bacterial Biotransformation: Compound metabolized

Compound: CCC(COC(=O)c1cc(OC)c(OC)c(OC)c1)(c1ccccc1)N(C)C.O=C(O)/C=C\C(=O)O (centres undefined)
Bacterial Biotransformation: Compound NOT metabolized

Compound: CC(=O)OCC(=O)[C@@]12N=C(C)O[C@@H]1C[C@H]1[C@@H]3CCC4=CC(=O)C=C[C@]4(C)[C@H]3[C@@H](O)C[C@@]12C
Bacterial Biotransformation: Compound metabolized

---

- Assay summary: The drug is tested on Z-028 corresponding to mouse gut metagenome with ENA study accession number: PRJEB37062 and ENA sample accession number: ERS12561827 for biotransformation under anaerobic condition. The drug concentrations were measured over 9 timepoints collected between 0 and 24 hours of incubation by liquid-chromatography-coupled mass spectrometry (LC–MS)
- Measurement setup: 2 µM

Compound: CC(CN1c2ccccc2Sc2ccccc21)N(C)C (stereo not drawn)
Bacterial Biotransformation: Compound NOT metabolized

Compound: CC(C)c1c(C(=O)Nc2ccccc2)c(-c2ccccc2)c(-c2ccc(F)cc2)n1CC[C@@H](O)C[C@@H](O)CC(=O)O
Bacterial Biotransformation: Compound NOT metabolized

Compound: OCCN1CCN(CCCN2c3ccccc3Sc3ccc(C(F)(F)F)cc32)CC1
Bacterial Biotransformation: Compound metabolized

Compound: CN(C)CCC=C1c2ccccc2C=Cc2ccccc21
Bacterial Biotransformation: Compound NOT metabolized

Compound: CCOC(=O)[C@H](CCc1ccccc1)N[C@@H](C)C(=O)N1[C@H](C(=O)O)C[C@H]2CCCC[C@@H]21
Bacterial Biotransformation: Compound NOT metabolized

Compound: CC(C)(Oc1ccc(CCNC(=O)c2ccc(Cl)cc2)cc1)C(=O)O [BEZAFIBRATE]
Bacterial Biotransformation: Compound NOT metabolized

Compound: CN1CCC(=C2c3ccccc3CCc3cccnc32)CC1.O=C(O)/C=C\C(=O)O.O=C(O)/C=C\C(=O)O [AZATADINE MALEATE]
Bacterial Biotransformation: Compound NOT metabolized

Compound: Nc1nc2ccc(OC(F)(F)F)cc2s1
Bacterial Biotransformation: Compound NOT metabolized

Compound: O=C1NCC2(CCN(CCc3ccccc3)CC2)O1 [FENSPIRIDE]
Bacterial Biotransformation: Compound NOT metabolized

Compound: Cc1nc(-c2ccc(OCC(C)C)c(C#N)c2)sc1C(=O)O
Bacterial Biotransformation: Compound metabolized

Compound: CN1CCOC(c2ccccc2)c2ccccc2C1 (stereo not drawn)
Bacterial Biotransformation: Compound NOT metabolized

Compound: CCCc1nc2c(C)cc(-c3nc4ccccc4n3C)cc2n1Cc1ccc(-c2ccccc2C(=O)O)cc1
Bacterial Biotransformation: Compound metabolized

Compound: O=C(CCCN1CCC(O)(c2ccc(Cl)cc2)CC1)c1ccc(F)cc1
Bacterial Biotransformation: Compound NOT metabolized

Compound: COc1c(C)c2c(c(O)c1C/C=C(\C)CCC(=O)OCCN1CCOCC1)C(=O)OC2 [MYCOPHENOLATE MOFETIL]
Bacterial Biotransformation: Compound metabolized

Compound: CN1CC(=O)N2[C@H](c3ccc4c(c3)OCO4)c3[nH]c4ccccc4c3C[C@@H]2C1=O
Bacterial Biotransformation: Compound NOT metabolized

Compound: CC(C)(C(=O)O)c1ccc(C(O)CCCN2CCC(C(O)(c3ccccc3)c3ccccc3)CC2)cc1 (stereo not drawn) [FEXOFENADINE]
Bacterial Biotransformation: Compound NOT metabolized

Compound: COc1cc2nc(N3CCN(C(=O)c4ccco4)CC3)nc(N)c2cc1OC
Bacterial Biotransformation: Compound NOT metabolized

Compound: CC(C)NCC(O)COc1ccc(CCOCC2CC2)cc1 (stereo not drawn)
Bacterial Biotransformation: Compound NOT metabolized
